# ASSAYED_SYSTEM: human 5-HT2C receptor (Homo sapiens, UniProt P28335, I156V/I160V/N158S)
# Sequence (P28335 33-458 I156V/N158S/I160V limits assumed): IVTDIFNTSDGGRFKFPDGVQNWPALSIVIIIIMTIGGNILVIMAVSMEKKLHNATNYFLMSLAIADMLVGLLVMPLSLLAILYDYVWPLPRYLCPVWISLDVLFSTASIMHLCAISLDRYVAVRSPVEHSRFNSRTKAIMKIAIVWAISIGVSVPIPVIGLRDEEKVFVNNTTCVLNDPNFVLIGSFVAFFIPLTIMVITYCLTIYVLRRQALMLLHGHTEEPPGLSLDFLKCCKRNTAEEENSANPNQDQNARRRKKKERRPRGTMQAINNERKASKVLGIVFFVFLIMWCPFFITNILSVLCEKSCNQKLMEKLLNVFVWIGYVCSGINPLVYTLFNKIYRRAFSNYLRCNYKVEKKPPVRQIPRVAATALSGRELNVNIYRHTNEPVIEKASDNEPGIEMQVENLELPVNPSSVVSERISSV
# RUN_DESCRIPTION: cell-based
The label is condition met for EC50 below 20 nM and condition not met for EC50 equal to or exceeding 20 nM.

compound=Brc1ccccc1OC1CN(c2c3c(nc4ccnn24)CCNCC3)C1 answer_label="condition not met"
compound=O=C(CC1CN(c2c3c(nc4ccnn24)CCNCC3)C1)N1CCc2ccccc21 answer_label="condition met"
compound=COCC1CN(c2c3c(nc4ccnn24)CCNCC3)C1 answer_label="condition not met"
compound=Fc1cccc(OCC2CN(c3c4c(nc5ccnn35)CCNCC4)C2)c1 answer_label="condition not met"
compound="C#CC1CCN(C(=O)C2CN(c3c4c(nc5ccnn35)CCNCC4)C2)C1 (centres unmarked)" answer_label="condition met"

---

# ASSAYED_SYSTEM: human 5-HT2C receptor (Homo sapiens, UniProt P28335, I156V/I160V/N158S)
# RUN_DESCRIPTION: cell-based
Heads up, the class ranges for EC50 are low class: < 0.05 µM; middle class: ≥ 0.05 µM and < 0.4 µM; high class: ≥ 0.4 µM

compound="Cc1csc(C2CN(c3c4c(nc5ccnn35)CCNCC4)C2)n1 [Example 11]" answer_label="middle class"
compound="COc1ccc2c(c1)CCN(c1c3c(nc4ccnn14)CCNCC3)C2 [Example 1.23]" answer_label="high class"
compound="O=C(C1CN(c2c3c(nc4ccnn24)CCNCC3)C1)N1CCC(N2CCOCC2)CC1 [Example 37.19]" answer_label="low class"
compound="COc1ccc(C)cc1OCC1CN(c2c3c(nc4ccnn24)CCNCC3)C1 [Example 15.7]" answer_label="low class"
compound="Cc1cccnc1CN(C)C(=O)C1CN(c2c3c(nc4ccnn24)CCNCC3)C1 [Example 31.196]" answer_label="middle class"
compound="O=C(C1CN(c2c3c(nc4ccnn24)CCNCC3)C1)N1CCCC(c2ccccc2)(c2ccccc2)C1 [Example 31.221]" answer_label="high class"
compound="CN(Cc1ccc(F)cc1)C(=O)C1CN(c2c3c(nc4ccnn24)CCNCC3)C1 [Example 31.96]" answer_label="low class"
compound="CCc1cnn2c(N3CC(Oc4ccc(OC)cc4)C3)c3c(nc12)CCNCC3 [Example 25.1]" answer_label="middle class"
compound="O=C(C1CCCN(c2c3c(nc4ccnn24)CCNCC3)C1)N1CCC(C2CCCCC2)CC1 (centres unmarked) [Example 1.58]" answer_label="high class"
compound="Cn1c(C2CN(c3c4c(nc5ccnn35)CCNCC4)C2)nc2cc(Cl)ccc21 [Example 34.3]" answer_label="high class"
compound="O=C(N1CCOCC1)C1(c2ccccc2)CCN(c2c3c(nc4ccnn24)CCNCC3)CC1 [Example 1.54]" answer_label="high class"
compound="CN(CCc1ccccc1)C(=O)C1CN(c2c3c(nc4ccnn24)CCNCC3)C1 [Example 31.61]" answer_label="middle class"
compound="C[C@@H]1C[C@H](C)CN(C(=O)C2CN(c3c4c(nc5ccnn35)CCNCC4)C2)C1 [Example 31.180]" answer_label="low class"
compound="CN(C(=O)C1CN(c2c3c(nc4ccnn24)CCNCC3)C1)C1CCCCC1 [Example 31.179]" answer_label="high class"
compound="CN1CCc2nc3ccnn3c(N3CC(C(=O)N4CCN(C(=O)C5CC5)CC4)C3)c2CC1 [Example 36.43]" answer_label="middle class"
compound="O=C(C1CN(c2c3c(nc4ccnn24)CCNCC3)C1)N1CCC(Cc2ccccc2)CC1 [Example 31.126]" answer_label="low class"

---

# ASSAYED_SYSTEM: human 5-HT2C receptor (Homo sapiens, UniProt P28335, I156V/I160V/N158S)
# RUN_DESCRIPTION: cell-based
PROPERTY_MEASURED: EC50 (nM)

compound=OC1CCN(c2c3c(nc4ccnn24)CCNCC3)CC1 property_measured=EC50 unit_abbreviation=nM reported_value=1850
compound=COC[C@@H]1CCCN1c1c2c(nc3ccnn13)CCNCC2 property_measured=EC50 unit_abbreviation=nM reported_value=504
compound=Cc1cnn2c(N3CCC3)c3c(nc12)CCNCC3 property_measured=EC50 unit_abbreviation=nM reported_value=49
compound=Cc1ccccc1OC1CN(c2c3c(nc4ccnn24)CCNCC3)C1 property_measured=EC50 unit_abbreviation=nM reported_value=112
compound=C#CCNC(=O)C1CN(c2c3c(nc4ccnn24)CCNCC3)C1 property_measured=EC50 unit_abbreviation=nM reported_value=94
compound=CC(C)(C)C1CCN(C(=O)C2CN(c3c4c(nc5ccnn35)CCNCC4)C2)CC1 property_measured=EC50 unit_abbreviation=nM reported_value=22
compound="CC(NC(=O)C1CN(c2c3c(nc4ccnn24)CCNCC3)C1)C(C)(C)C (stereo not drawn)" property_measured=EC50 unit_abbreviation=nM reported_value=139
compound=CC(=O)N1CCN(C(=O)C2CN(c3c4c(nc5ccnn35)CCN(C)CC4)C2)CC1 property_measured=EC50 unit_abbreviation=nM reported_value=181
compound=Brc1ccc(OC2CN(c3c4c(nc5ccnn35)CCNCC4)C2)cc1 property_measured=EC50 unit_abbreviation=nM reported_value=184
compound="O=C(NC1CCCC(C(F)(F)F)C1)C1CN(c2c3c(nc4ccnn24)CCNCC3)C1 (stereo not drawn)" property_measured=EC50 unit_abbreviation=nM reported_value=47
compound=O=C(C1CN(c2c3c(nc4ccnn24)CCNCC3)C1)N1CCNCC1 property_measured=EC50 unit_abbreviation=nM reported_value=2
compound=Cc1cccc2[nH]c(C3CN(c4c5c(nc6ccnn46)CCNCC5)C3)nc12 property_measured=EC50 unit_abbreviation=nM reported_value=246
compound=O=C(C1CN(c2c3c(nc4ccnn24)CCNCC3)C1)N1CCC(F)(F)CC1 property_measured=EC50 unit_abbreviation=nM reported_value=67
compound=CN1CCc2nc3ccnn3c(N3CC(C(=O)NC4CCC(C)(C)CC4)C3)c2CC1 property_measured=EC50 unit_abbreviation=nM reported_value=911
compound=O=C(C1CN(c2c3c(nc4ccnn24)CCNCC3)C1)N1CCc2ccc(C(F)(F)F)cc21 property_measured=EC50 unit_abbreviation=nM reported_value=34
compound="CN(C(=O)C1CN(c2c3c(nc4ccnn24)CCNCC3)C1)C1CCCc2ccccc21 (stereo not drawn)" property_measured=EC50 unit_abbreviation=nM reported_value=967
compound="CC(C)CC(C)NC(=O)C1CN(c2c3c(nc4ccnn24)CCNCC3)C1 (stereo not drawn)" property_measured=EC50 unit_abbreviation=nM reported_value=92
compound=C[C@@H](c1ccccc1)N(C)C(=O)C1CN(c2c3c(nc4ccnn24)CCNCC3)C1 property_measured=EC50 unit_abbreviation=nM reported_value=2010

---

# ASSAYED_SYSTEM: human 5-HT2C receptor (Homo sapiens, UniProt P28335, I156V/I160V/N158S)
# RUN_DESCRIPTION: cell-based
# note: boundary value 200 nM maps to Not met; EC50 below it maps to Met

compound=CN(C)CCCN(C)C(=O)C1CN(c2c3c(nc4ccnn24)CCN(C)CC3)C1 answer_label=Met
compound=CN1CCc2nc3ccnn3c(N3CC(C(=O)NC4CCOCC4)C3)c2CC1 answer_label=Met
compound=CN(C)C(=O)[C@@H]1CCN(c2c3c(nc4ccnn24)CCNCC3)C1 answer_label="Not met"
compound="O=C(NC1CCCCC1C(F)(F)F)C1CN(c2c3c(nc4ccnn24)CCNCC3)C1 (centres unmarked)" answer_label="Not met"
compound=CC1(C(=O)N2CCc3c(cccc3C(F)(F)F)C2)CN(c2c3c(nc4ccnn24)CCNCC3)C1 answer_label="Not met"
compound=O=C(C1CC1)N1CCN(C(=O)C2CN(c3c4c(nc5ccnn35)CCNCC4)C2)CC1 answer_label=Met
compound=c1cc2nc3c(c(N4CCOCC4)n2n1)CCNCC3 answer_label="Not met"
